// provenance: patent US6716866B2

system: DNA sequence AGTACT; experiment: Quantitative DNase I footprint titration, site AGTACT; assay type: binding; conditions: DNase I footprinting, pH 7.0, 22° C.
Reported Metric: Association Constant, Ka
For clarity, give the value followed by its unit.

CN(C)CCCNC(=O)CCNC(=O)c1cc(NC(=O)c2cc(NC(=O)c3cc(NC(=O)c4nc(NC(=O)CCCNC(=O)c5cc(NC(=O)c6cc(NC(=O)c7ccc8nc(-c9nsc(Cl)c9Cl)[nH]c8c7)cn6C)cn5C)cn4C)cn3C)cn2C)cn1C
1e+11 M⁻¹
CN(C)CCCNC(=O)CCNC(=O)c1cc(NC(=O)c2cc(NC(=O)c3cc(NC(=O)c4nc(NC(=O)CCCNC(=O)c5cc(NC(=O)c6cc(NC(=O)c7ccc8nc(-c9nccn9C)[nH]c8c7)cn6C)cn5C)cn4C)cn3C)cn2C)cn1C
1e+11 M⁻¹
CN(C)CCCNC(=O)CCNC(=O)c1cc(NC(=O)c2cc(NC(=O)c3cc(NC(=O)c4nc(NC(=O)CCCNC(=O)c5cc(NC(=O)c6cc(NC(=O)c7cc(NC(=O)c8nccn8C)cn7C)cn6C)cn5C)cn4C)cn3C)cn2C)cn1C [Compound A, reference compound]
3e+09 M⁻¹

Alright, here's another compound for you.
Request: I would be grateful if you could share the reported Association Constant, Ka for CN(C)CCCNC(=O)CCNC(=O)c1cc(NC(=O)c2cc(NC(=O)c3cc(NC(=O)c4nc(NC(=O)CCCNC(=O)c5cc(NC(=O)c6cc(NC(=O)c7cc(NC(=O)c8nsc(NCCCN(C)C)c8Cl)cn7C)cn6C)cn5C)cn4C)cn3C)cn2C)cn1C [B, reference compound] .
Response: 1e+11 M⁻¹
